So I've got a bunch of variants here, and I need their protein stability index values.
B1: C19orf51 (parent)
chain: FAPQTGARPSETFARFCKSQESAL

- Variants of: B1
- experimental-details: protein stability index of a GFP-peptide fusion (GPS, HEK-293T) (PSI 1-6); higher = more stable;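 also: lentivirally expressed fusions sorted by FACS into six bins by GFP to DsRed ratio, PSI derived from sequencing read proportions per bin multiplied by bin number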
- condition-context: c terminus: a fixed tail appended
Numbers only.

Please review the entries below; each comes with its answer.
var=E21R measurement_kind="protein stability index" val=4.11
var=R8A measurement_kind="protein stability index" val=2.93
var=F13A measurement_kind="protein stability index" val=1.89

Would you mind giving protein stability index for every variant in the list below?
1. K18H
2. F1V
3. F13S

2.19
3.3
1.41

State the recorded protein stability index for every item in the following list.
1. S19P
2. R8D
3. R15L
4. Q4S

[1.77, 2.13, 2.84, 2.6]

For every record below, what is its protein stability index?
1. K18P
2. C17W
3. A7F
4. S19E

1: 2.61; 2: 3; 3: 2.41; 4: 1.1

Record protein stability index per entry; entries follow.
1. S19C
2. S22E
3. T12E
4. E21H
5. R15G
6. A2D
7. E11H

1: 3.45; 2: 1.58; 3: 1.4; 4: 3.63; 5: 2.37; 6: 3.07; 7: 2.47
